Listing: IC50 of selected compounds
# Test system: RAW264.7
# assay-overview: Inhibition of LPS and IFN-gamma-induced nitric oxide production in mouse RAW264.7 cells after 16 hrs by Griess assay
# Assay type: functional, cell-based
# test-settings: RAW264.7, 16 h

| compound | IC50 / µg/mL |
| --- | --- |
| CC(C)=CC(=O)/C=C(\C)CCC[C@]1(C)Oc2oc3cc(O)ccc3c(=O)c2[C@H]1C (relative stereo) | 11.5 |
| CC(C)=CC(=O)C/C(C)=C/CC[C@@]1(C)Oc2oc3cc(O)ccc3c(=O)c2[C@H]1C (relative stereo) | 8.9 |
| CC(C)=CCC/C(C)=C/CC[C@]1(C)Oc2oc3cc(O)ccc3c(=O)c2[C@H]1C | 4.1 |
| CC(C)=CC(=O)C/C(C)=C/CC[C@]1(C)Oc2oc3cc(O)ccc3c(=O)c2[C@H]1C (relative stereo) | 9.8 |
| CC(C)=CC(=O)/C=C(/C)CCC[C@]1(C)Oc2oc3cc(O)ccc3c(=O)c2[C@H]1C (relative stereo) | 9.5 |
